Target: Prostaglandin E synthase (Homo sapiens)
Result type: IC50 (µM)

Given smiles: O=[N+]([O-])c1ccc2c(c1)S(=O)(=O)N=C2Nc1cccc(Cl)c1
IC50, µM: 5.7

I. O=[N+]([O-])c1ccc2c(c1)S(=O)(=O)N=C2Nc1ccccc1
II. COc1cccc(NC2=NS(=O)(=O)c3cc([N+](=O)[O-])ccc32)c1
Task: Param metric = IC50; output whichever of I , II has the minimum value. Refer to your chosen entry by its label in the reply.
Output: II

---

Molecular target: Polyunsaturated fatty acid 5-lipoxygenase (Homo sapiens, UniProt P09917)
Sequence (P09917 whole entry): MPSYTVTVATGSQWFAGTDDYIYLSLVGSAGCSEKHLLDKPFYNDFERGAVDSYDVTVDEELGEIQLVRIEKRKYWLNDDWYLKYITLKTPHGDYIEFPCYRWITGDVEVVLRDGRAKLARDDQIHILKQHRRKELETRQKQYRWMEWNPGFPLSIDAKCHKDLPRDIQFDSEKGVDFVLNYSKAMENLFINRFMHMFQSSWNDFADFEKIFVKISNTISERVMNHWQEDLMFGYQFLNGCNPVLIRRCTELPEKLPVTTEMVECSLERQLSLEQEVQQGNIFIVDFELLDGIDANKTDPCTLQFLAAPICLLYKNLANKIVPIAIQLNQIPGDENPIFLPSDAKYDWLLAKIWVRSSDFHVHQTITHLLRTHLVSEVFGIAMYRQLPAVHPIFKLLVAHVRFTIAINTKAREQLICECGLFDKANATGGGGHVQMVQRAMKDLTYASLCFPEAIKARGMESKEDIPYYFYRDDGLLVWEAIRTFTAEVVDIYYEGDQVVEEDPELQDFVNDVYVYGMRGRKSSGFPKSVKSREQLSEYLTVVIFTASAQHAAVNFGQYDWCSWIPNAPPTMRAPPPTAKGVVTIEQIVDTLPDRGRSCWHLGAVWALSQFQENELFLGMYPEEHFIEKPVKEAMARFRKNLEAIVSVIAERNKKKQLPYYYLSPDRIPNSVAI
Result type: IC50 (µM)

Given smiles: CC(C)c1cccc(NC2=NS(=O)(=O)c3cc([N+](=O)[O-])ccc32)c1
Target desc: Polyunsaturated fatty acid 5-lipoxygenase (Homo sapiens, UniProt P09917)
Result type: IC50
Experimental value: 0.25

a. O=[N+]([O-])c1ccc2c(c1)S(=O)(=O)N=C2Nc1cccc(-c2ccccc2)c1
b. O=[N+]([O-])c1ccc2c(c1)S(=O)(=O)N=C2Nc1cccc2c1OCO2
Task: Please tell me which of the two, a or b , has the higher reported IC50 value. Indicate your choice by writing its label.
Output: b

---

Biological target: Prostaglandin E synthase (Homo sapiens, UniProt O14684)
Sequence (O14684 whole entry): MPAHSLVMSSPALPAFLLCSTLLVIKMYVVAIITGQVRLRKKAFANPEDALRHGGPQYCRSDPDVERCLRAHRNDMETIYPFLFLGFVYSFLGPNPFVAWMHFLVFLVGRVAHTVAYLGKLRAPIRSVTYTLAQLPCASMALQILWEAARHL
Test: Inhibition of microsomal PGES-1 (unknown origin) assessed as PGH2 conversion to PGE2 after 1 min by enzyme immunoassay
pIC50: −log10 of the molar value.
In this section we review reported pIC50 values for a set of compounds.

Reference set (3 entries):
Given smiles: CC(C)c1cccc(NC2=NS(=O)(=O)c3cc([N+](=O)[O-])ccc32)c1
Target desc: Prostaglandin E synthase (Homo sapiens, UniProt O14684)
pIC50: < 4.30
//
Given smiles: O=[N+]([O-])c1ccc2c(c1)S(=O)(=O)N=C2Nc1cccc2c1OCO2
Target desc: Prostaglandin E synthase (Homo sapiens, UniProt O14684)
pIC50: < 4.30
//
Given smiles: O=[N+]([O-])c1ccc2c(c1)S(=O)(=O)N=C2Nc1cccc(-c2ccccc2)c1
Target desc: Prostaglandin E synthase (Homo sapiens, UniProt O14684)
pIC50: < 4.30

Task: Item COc1ccc(NC2=NS(=O)(=O)c3cc([N+](=O)[O-])ccc32)cc1OC has what recorded pIC50?
Output: < 4.30
